Tested on: M14 melanoma
method_summary: NCI-60 one-dose screen, 48 h (100 = growth as untreated, 0 = no growth, -100 = all killed)
condition_description: 10 µM unless noted
Protocol: Growth inhibition of the M14 human tumor cell line is measured as a screen for anti-cancer activity. Cells are grown in 96 well plates and exposed to the test compound for 48 hours. Compounds are tested at a single concentration, which is 10^-5 M for most compounds. The reported endpoint is percent growth (GI% or GIPRCNT), where numbers from 0 - 100% represent growth inhibition, and numbers from -100% - 0 represent cell death. For example, a value of 40 represents 60% growth inhibition. […]
Compounds without any hit were thinned out: in the full panel of roughly 83,000, 20% have a hit.
Consider the cut-off 20%. If the recorded growth is strictly smaller, the label is True; if not, the label is False.

[ask] Given CCOC(=O)c1cc(C(=O)c2cc(OC)c(OC)c(OC)c2)n2ccc(-c3ccncc3)cc12 , is recorded growth strictly lower than 20%?
[reply] False

[ask] Another compound to look at: O=C1NC(=O)c2c1c1c3ccccc3ccc1c1[nH]c3ccc(Br)cc3c21
[reply] True

[ask] Also need Cc1cc(Cl)ccc1NC(=O)c1cc2ccccc2cc1O , thanks.
[reply] False

[ask] Would you kindly repeat that for Cc1ccc(Sc2nnc(/N=C3\C(=O)Nc4ccccc43)s2)cc1 ?
[reply] False

[ask] Now give it for O=C(O)[C@@H]1c2ccccc2-c2ccccc2[C@H]1C(=O)O too.
[reply] False

[ask] Also, COc1cccc([C@H]2c3[nH]c4ccccc4c3C[C@H]3C(=O)N(CCCCCCC(=O)NO)CC(=O)N23)c1 please.
[reply] False

[ask] Try this compound next: COc1cc(C(=O)n2nc(N3CCN(C)CC3)c3cc(N)ccc32)cc(OC)c1OC
[reply] True

[ask] What do you get for CCn1cc(C(=O)N/N=C/c2cccs2)c(=O)c2cc(F)c(N3CCNC(C)C3)c(F)c21 (stereo not given) ?
[reply] False

[ask] Item: CN1C(=O)/C(=C/c2ccc(C(=O)Nc3ncc(Cc4ccc(Cl)cc4)s3)cc2)SC1=S
[reply] True

[ask] Same again, this time with O=C(OCc1ccc2cccc(O)c2n1)N1CCN(C(=O)c2cc3cc(F)ccc3[nH]2)CC1
[reply] True

----------
Test system: SK-MEL-2 melanoma
method_summary: NCI-60 one-dose screen, 48 h (100 = growth as untreated, 0 = no growth, -100 = all killed)
condition_description: 10 µM unless noted
The panel holds about 83,000 compounds, 20% with a hit somewhere; the sample as a whole holds those more often.
assay_metric: growth (%)
Please state the figure in %; there is no need to write the unit.

[ask] Record request: growth value, item c1cnc2[nH]cc(-c3csc(-c4cn(CCCN5CCOCC5)c5ccccc45)n3)c2c1
[reply] 82.6

[ask] Cool, now O=C1c2c(c3c4ccc(Br)cc4oc3c3[nH]c4ccccc4c23)C(=O)N1O
[reply] 20

[ask] Now the same for O=C1/C(=C/c2ccc(F)cc2)COc2ccc(O)c(O)c21
[reply] 74.8

[ask] Try N#CCSc1nnc2n(Cc3ccccc3)c(=O)c3c4c(sc3n12)CCCC4 next.
[reply] 96

[ask] Record: COC(=O)/C=C1/SC(=Nc2ccc(C)cc2)N(CCc2c[nH]c3ccc(O)cc23)C1=O
[reply] 35.4

[ask] Proceed to C=C(CNCCc1ccc(O)cc1)[C@@H]1CC[C@]2(CO)CC[C@]3(C)[C@H](CC[C@@H]4[C@@]5(C)CCC(NCCO)C(C)(C)[C@@H]5CC[C@]43C)[C@@H]12 (stereo partly drawn)
[reply] -81

[ask] Repeat with O=C(Nc1ccc(-c2nc(N3CCOCC3)c3cccn3n2)cc1)Nc1cccnc1
[reply] -4.42

[ask] Same for CO[C@]12C=C/C(=C(/C(=O)OCc3cccnc3)C(=O)CCCCCCCC[C@@]3(OC)C=C/C(=C(/C(=O)OCc4cccnc4)C(=O)CCCCCCCC1)O3)O2
[reply] 21.4

----------
System: MALME-3M melanoma
method_summary: NCI-60 one-dose screen, 48 h (100 = growth as untreated, 0 = no growth, -100 = all killed)
condition_description: 10 µM unless noted
This is part of a sample that, as a whole, favours compounds with a hit. Of some 83,000 tested, about 20% had one in any assay.
assay_metric: growth (%)
I only need the number, in %, no unit after it.

[ask] Item N=C(N)c1ccc(-c2ccc(-c3ccc(Cl)cc3)s2)nc1 has what recorded growth?
[reply] 87.3

[ask] Subsequent entry: O=C(Nc1cccc([N+](=O)[O-])c1)c1cc2ccccc2cc1O
[reply] -23.3

[ask] N#C/C(=C/c1ccc([N+](=O)[O-])cc1)n1nnc2cc(F)c(F)cc21 ?
[reply] 74.8

[ask] Same question, O=C(Cn1c(-c2ccc([N+](=O)[O-])cc2)nc2ccccc21)NNC(=O)c1cccnc1 this time
[reply] 105

[ask] And Cc1ccc(-c2cc(-c3ccc(Cl)cc3)nc(NC(=O)c3cccnc3)n2)cc1 ?
[reply] 111

[ask] Next entry: CN1CCN(c2ccc(NC(=O)c3cncnc3Nc3ccc(OCc4ccccn4)c(Cl)c3)cc2)CC1
[reply] -55.1

[ask] Now consider CCS/C(Nc1ccccc1)=C(\C#N)C(=O)N/N=C/c1ccc(Cl)cc1Cl and answer again.
[reply] 38.1

[ask] Check C=C(C)[C@@H]1CC[C@]2(C(=O)NCC#CCN3CCN(C)CC3)CC[C@]3(C)[C@H](CC[C@@H]4[C@@](C)(CCC#N)[C@H](C(=C)C)CC[C@]43C)[C@@H]12 too.
[reply] 56.9

[ask] What do you get for Cc1ccc(Sc2oc(-c3ccc(C)cc3)nc2[P+](c2ccccc2)(c2ccccc2)c2ccccc2)cc1 ?
[reply] -41.1

[ask] Continue with O=C1Nc2ccccc2[C@]12CC(c1ccccc1)=NN2
[reply] 37.2

[ask] Likewise for O=C1COCCN1c1ccc(Nc2nc(Cl)nc(OCc3cn(Cc4ccccc4)nn3)n2)cc1 ?
[reply] 96.1

[ask] Would you mind doing Clc1ccc(Sc2cnc(-c3ccccc3)o2)cc1 as well?
[reply] 102

[ask] Lookup CCc1nc2c(=O)[nH]cnc2o1
[reply] 83.1

[ask] Please answer likewise for CCOC(=O)C1=NN(c2ccccc2)C(=O)/C1=C\N1C(=O)CC(=O)NC1=S
[reply] 97.6

[ask] Check Cc1ccc(-c2nc(N3CCNCC3)c3oc(-c4ccccc4)nc3n2)cc1 too.
[reply] -29.5

[ask] Next entry: C=C(CNCCc1ccc(O)cc1)[C@@H]1CC[C@]2(CO)CC[C@]3(C)[C@H](CC[C@@H]4[C@@]5(C)CCC(NCCO)C(C)(C)[C@@H]5CC[C@]43C)[C@@H]12 (some centres undefined)
[reply] -90.6

[ask] Moving on to the next molecule: C=CCn1cc(-c2nc3ccccc3s2)c2cc(-c3ccc4c5c(cccc35)C(=O)N(N)C4=O)ccc21
[reply] 101

[ask] Okay, and CN(CCOc1ccc(C#N)cc1)CCOc1ccc(C#N)cc1 ?
[reply] 76.5

[ask] Same question for O=S(=O)(NCCNc1cc(-c2c(-c3cccc(O)c3)nc3sccn23)ccn1)c1ccc(C(F)(F)F)cc1 please.
[reply] 57.8

----------
Tested on: TK-10 renal
method_summary: NCI-60 one-dose screen, 48 h (100 = growth as untreated, 0 = no growth, -100 = all killed)
condition_description: 10 µM unless noted
This is part of a sample that, as a whole, favours compounds with a hit. Of some 83,000 tested, about 20% had one in any assay.
Please respond with reported growth for every item in the list.
Please respond with the number in % and leave the unit unwritten.

[ask] # get_value(readout='growth', item= Cc1cccnc1NC(=S)Nc1ncccc1C )
[reply] 90.1

[ask] Query C=C(C)[C@@H]1CC[C@]2(C)[C@H](CC=C3[C@@H]4[C@H](C)[C@@H](C)CC[C@]4(CO)CC[C@]32C)[C@@]1(C)CCCN next
[reply] -68.3

[ask] Can you handle COc1ccc(N2CCC(=O)NC2=S)cc1 next?
[reply] 100

[ask] Next: O=C1/C(=C/c2ccc(F)cc2)COc2ccc(O)c(O)c21
[reply] 17.8

[ask] Also check CCN(CC)c1nc(SCc2ccccc2Cl)ncc1C
[reply] 117

[ask] Proceed to Cc1ccc(Sc2oc(-c3ccc(C)cc3)nc2[P+](c2ccccc2)(c2ccccc2)c2ccccc2)cc1
[reply] 22.7

[ask] Quick one: CCOC(=O)C#Cc1c(C(=O)OCC)nnn1[C@@H]1O[C@H](CO)[C@H]2OC3(CCCCC3)O[C@H]21
[reply] -3.79

[ask] Follow-up item: COC(=O)[C@H]1CCCN1C[C@@H](O)CN1C(=O)/C(=C\c2cc(OC)c(OC)c(OC)c2)c2ccccc21
[reply] 102

[ask] Input CCn1c(SCC(=O)c2ccc(Br)cc2)nnc1-c1ccncc1
[reply] 116

[ask] Also CC(O)c1cnc(/C=C2\SC(=S)N(Cc3ccccc3)C2=O)s1 (stereo not given) , if possible.
[reply] -18.5

[ask] Ok, now N#C/C(=C\c1ccc(Br)cc1)n1nnc2ccc(F)cc21
[reply] -3.76

[ask] What do you have for O=C(NNc1nccc(Nc2ccc(S(=O)(=O)Nc3ccncc3)cc2)n1)c1ccccc1 ?
[reply] 95.3

[ask] What do you have for O=C1c2ccc3c4ccc5c6c(ccc(c7ccc(c2c37)C(=O)N1CCC[P+](c1ccccc1)(c1ccccc1)c1ccccc1)c64)C(=O)N(CCC[P+](c1ccccc1)(c1ccccc1)c1ccccc1)C5=O ?
[reply] 141

[ask] Also Cn1c(-c2ccc(Br)cc2)c(O)c(=O)c2c(F)cccc21 , if possible.
[reply] 42.4

[ask] Then COc1ccc(OC)c(-c2c(C#N)c(-c3cccs3)nc3c2c(-c2ccccc2)nn3-c2ccccc2)c1 ?
[reply] 108

[ask] Request: N#C/C(=C/c1ccc([N+](=O)[O-])cc1)n1nnc2cc(F)c(F)cc21
[reply] 24.5

[ask] Same for NC(=O)CCC(C(=O)O)N1C(=O)c2ccc(O)cc2C1=O (stereo not given)
[reply] 114

[ask] Also check COc1ccc(-c2nc(SCC(C)C)nc(N/N=C\c3ccc(F)cc3)c2C#N)cc1
[reply] 81.5

[ask] Follow-up item: CC(=O)n1nc(C(=O)OC(C)C)c2cc(C)c(C)cc21
[reply] 98.6

[ask] Also O=C1N[C@@H]2NC(=[N+]3CCOCC3)N[C@@H]2N1 , if possible.
[reply] 103
